For reference, IC50 measured on Jack-bean urease (Canavalia ensiformis, UniProt P07374):
All answers are understood in µM, so give the number only.

NC(N)=S: 24.5

Next compound, please.
State, for Jack-bean urease (Canavalia ensiformis, UniProt P07374), measured IC50 of the compound listed here: "Nc1cccc(C(=O)O)c1"
31.4
